Items are presented alongside their recorded EC50.
Target: EGFR InsSVD Ba/F3 cell line (Homo sapiens, UniProt P00533, DUP768-770, cells depend on it)
Sequence (P00533 with tags, fused parts or gaps DUP768-770): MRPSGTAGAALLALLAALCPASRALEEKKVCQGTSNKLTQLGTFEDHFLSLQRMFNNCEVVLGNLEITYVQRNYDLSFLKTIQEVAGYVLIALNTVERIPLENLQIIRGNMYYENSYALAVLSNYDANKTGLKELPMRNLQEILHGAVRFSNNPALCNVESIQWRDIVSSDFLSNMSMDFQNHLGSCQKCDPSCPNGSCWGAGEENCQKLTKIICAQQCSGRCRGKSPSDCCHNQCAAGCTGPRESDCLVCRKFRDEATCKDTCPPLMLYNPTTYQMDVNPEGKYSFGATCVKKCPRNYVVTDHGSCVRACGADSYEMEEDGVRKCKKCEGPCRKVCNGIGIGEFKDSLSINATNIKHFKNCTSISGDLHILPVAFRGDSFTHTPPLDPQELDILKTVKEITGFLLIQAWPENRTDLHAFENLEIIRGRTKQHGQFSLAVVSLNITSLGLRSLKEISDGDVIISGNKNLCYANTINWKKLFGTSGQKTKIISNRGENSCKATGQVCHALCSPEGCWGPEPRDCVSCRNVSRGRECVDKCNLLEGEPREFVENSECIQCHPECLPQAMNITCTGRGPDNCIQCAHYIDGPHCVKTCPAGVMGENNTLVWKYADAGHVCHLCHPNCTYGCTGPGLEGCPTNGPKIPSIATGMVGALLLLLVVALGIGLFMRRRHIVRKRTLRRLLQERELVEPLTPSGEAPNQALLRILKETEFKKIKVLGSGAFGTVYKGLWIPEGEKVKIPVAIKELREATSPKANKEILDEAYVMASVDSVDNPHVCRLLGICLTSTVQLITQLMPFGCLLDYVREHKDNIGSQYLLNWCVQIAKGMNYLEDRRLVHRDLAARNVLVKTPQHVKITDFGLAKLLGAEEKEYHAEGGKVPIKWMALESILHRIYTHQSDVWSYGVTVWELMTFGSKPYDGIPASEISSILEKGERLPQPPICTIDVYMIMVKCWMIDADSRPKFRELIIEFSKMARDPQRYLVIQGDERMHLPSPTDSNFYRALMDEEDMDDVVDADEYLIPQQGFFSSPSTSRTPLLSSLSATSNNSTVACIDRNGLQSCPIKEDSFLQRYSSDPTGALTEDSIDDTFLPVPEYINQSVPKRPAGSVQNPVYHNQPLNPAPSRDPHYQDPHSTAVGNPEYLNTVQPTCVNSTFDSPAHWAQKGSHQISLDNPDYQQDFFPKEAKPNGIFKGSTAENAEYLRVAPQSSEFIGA
Experiment: Ba/F3 cell proliferation MTS assay, EGFR InsSVD
Conditions: EGFR InsSVD (D770_N771insSVD) Ba/F3 cells, 72 hours

[
  {
    "Molecule": "C=CC(=O)Nc1cccc(N(C(=O)OCc2ccc(F)nc2)c2ccnc(Nc3ccn(C)n3)n2)c1 [Compound I-12]",
    "EC50": "500 to 1000 nM"
  },
  {
    "Molecule": "C=CC(=O)Nc1cccc(N(C(=O)OCc2ccc(F)cn2)c2ccnc(Nc3cnn(C)c3)n2)c1 [Compound I-11]",
    "EC50": "500 to 1000 nM"
  },
  {
    "Molecule": "C=CC(=O)Nc1cccc(N(C(=O)OCc2ccc(F)cc2F)c2ccnc(Nc3cnn(C)c3)n2)c1 [Compound I-29]",
    "EC50": "< 100 nM"
  },
  {
    "Molecule": "CN(C)C/C=C/C(=O)Nc1cccc(N(C(=O)OCc2ccc(F)cc2)c2ccnc(Nc3cnn(C)c3)n2)c1 [Compound I-28]",
    "EC50": "> 1000 nM"
  },
  {
    "Molecule": "C=CC(=O)Nc1cccc(N(C(=O)OCc2ccc(F)cc2)c2ccnc(Nc3cnn(C)c3C)n2)c1 [Compound I-22]",
    "EC50": "< 100 nM"
  },
  {
    "Molecule": "C=CC(=O)Nc1cccc(N(C(=O)OCc2ccc(F)nc2)c2ccnc(Nc3cnn(C)c3)n2)c1 [Compound I-13]",
    "EC50": "> 1000 nM"
  },
  {
    "Molecule": "C=CC(=O)Nc1cccc(N(C(=O)OCc2ccc(F)cc2)c2ccnc(Nc3cnn(C4CCN(C)C4)c3)n2)c1 (centres unmarked) [Compound I-32]",
    "EC50": "< 100 nM"
  },
  {
    "Molecule": "C=CC(=O)Nc1cccc(N(C(=O)OCc2ccc(F)cc2)c2ccnc(Nc3cnn(C)c3C(F)(F)F)n2)c1 [Compound I-23]",
    "EC50": "100 to 500 nM"
  },
  {
    "Molecule": "C=CC(=O)Nc1cccc(N(C(=O)OCc2ccc(F)cc2)c2ccnc(Nc3ccn(C)n3)n2)c1 [Compound I-4]",
    "EC50": "< 100 nM"
  },
  {
    "Molecule": "C=CC(=O)Nc1cccc(N(C(=O)O[C@H](C)c2ccc(F)cc2)c2ccnc(Nc3ccn(C)n3)n2)c1 [Compound I-14]",
    "EC50": "500 to 1000 nM"
  },
  {
    "Molecule": "C=CC(=O)Nc1cccc(N(C(=O)OCc2ccc(F)cc2)c2ccnc(Nc3cnn(C4CCN(C)CC4)c3)n2)c1 [Compound I-30]",
    "EC50": "< 100 nM"
  },
  {
    "Molecule": "C=CC(=O)Nc1cccc(N(C(=O)OCc2cccc(F)c2)c2ccnc(Nc3cnn(C)c3)n2)c1 [Compound I-3]",
    "EC50": "< 100 nM"
  },
  {
    "Molecule": "Cn1cc(Nc2nccc(N(C(=O)OCc3ccc(F)cc3)c3cccc(NC(=O)/C=C/CN4CCCCC4)c3)n2)cn1 [Compound I-24]",
    "EC50": "500 to 1000 nM"
  },
  {
    "Molecule": "Cn1cc(Nc2nccc(N(C(=O)OCc3ccc(F)cc3)c3cccc(NC(=O)/C=C/CN4CCOCC4)c3)n2)cn1 [Compound I-26]",
    "EC50": "500 to 1000 nM"
  },
  {
    "Molecule": "C=CC(=O)Nc1cccc(N(C(=O)OCc2cc3ccccc3s2)c2ccnc(Nc3ccn(C)n3)n2)c1 [Compound I-6]",
    "EC50": "500 to 1000 nM"
  },
  {
    "Molecule": "C=CC(=O)Nc1cccc(N(C(=O)OCc2csc3ccccc23)c2ccnc(Nc3cnn(C)c3)n2)c1 [Compound I-19]",
    "EC50": "> 1000 nM"
  },
  {
    "Molecule": "C=CC(=O)Nc1cccc(N(C(=O)OCc2cc3ccccc3s2)c2ccnc(Nc3cnn(C)c3)n2)c1 [Compound I-7]",
    "EC50": "100 to 500 nM"
  }
]
